The reported numbers originate from patent US20110280940A1.

Tested on: Eleven human cancer cell lines
Assay: MTT colorimetric assay, across the eleven human cancer cell lines
Format: cell-based
Settings: mean ± SEM over the 11 human cancer cell lines, MTT, 72 hours; read-out: In Vitro IC50 Growth Inhibitory Values, m ± SEM
Collected IC50 values appear next to each entry.

Observe how each entry below is paired with its result.
Compound	Reported endpoint	Test result
COc1cc(C(=O)O[C@@H]2CCCC[C@H]2OC(=O)c2ccc(O)c(OC)c2)ccc1O [DLT8]	IC50	> 100 µM
COc1cc(C(=O)NC2CCC(NC(=O)c3ccc(O)c(OC)c3)CC2)ccc1O (mixture of isomers) [DLT40]	IC50	> 100 µM

Next up:
Short answer for COc1ccc(C(=O)OCCCCCCOC(=O)c2ccc(OC)c(OC)c2)cc1OC [DLT26] : IC50 was > 100 µM
